Assay: chemical genetic growth profiling, strain panel (AID 1159580);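 note: tested at 20 µM; growth read once vehicle control cultures reached saturation at 30 °C; 1 = growth at the plate median or of vehicle wells; lower values mean less growth of the strain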
Details: S. cerevisiae deletion strains, growth OD, locus YCL016C, strain dcc1, stronger effect = lower value
The whole screen tested about 5,500 compounds, of which about 2,000 (36%) were called active. About 18% were inconclusive and are not listed. Some of the results follow.

compound: COc1cc(C(=O)N2CCOCC2)cc(OC)c1OC
normalized growth: 1
//
compound: CO[C@H]1[C@@H](O)[C@@H](C)O[C@H](O[C@H]2CCC3(C)C4CCC5(C)[C@@H](C6=CC(=O)OC6)CC[C@]5(O)[C@@H]4CC[C@]3(O)C2)[C@@H]1O (stereo partly drawn)
normalized growth: 1.02
//
compound: CC(=O)Oc1ccccc1C(=O)Oc1ccccc1C(=O)O
normalized growth: 1
//
compound: Oc1ccc2c3c1OC1[C@@H](O)CC[C@@]4(O)[C@@H](C2)N(CC2CCC2)CC[C@]314 (stereo partly drawn)
normalized growth: 1.02
//
compound: NC[C@H]1O[C@H](O[C@H]2[C@H](O)[C@@H](O[C@H]3O[C@H](CO)[C@@H](O)[C@H](N)[C@H]3O)[C@H](N)C[C@@H]2N)[C@H](N)[C@@H](O)[C@@H]1O
normalized growth: 1.01
//
compound: CCC(=O)NCC[C@@H]1CCc2ccc3c(c21)CCO3
normalized growth: 1.04
//
compound: COC(=O)NC(=S)Nc1ccccc1NC(=S)NC(=O)OC
normalized growth: 0.974
//
compound: CC1(C)S[C@@H]2[C@H](NC(=O)[C@@H](N)c3ccc(O)cc3)C(=O)N2[C@H]1C(=O)O
normalized growth: 0.992
//
compound: CC1(C)[C@@H]2CC[C@@]1(C)C(=O)C2
normalized growth: 0.987
//
compound: CC1(C)S[C@@H]2[C@H](NC(=O)C(C(=O)O)c3ccccc3)C(=O)N2[C@H]1C(=O)O (stereo partly drawn)
normalized growth: 0.938
//
compound: NCCCC(O)(P(=O)(O)O)P(=O)(O)O
normalized growth: 0.984
//
compound: COC1CC(O[C@H]2CC[C@]3(C=O)C4CC[C@]5(C)C(C6=CC(=O)OC6)CC[C@]5(O)C4CC[C@]3(O)C2)OC(C)C1O (stereo partly drawn)
normalized growth: 0.954
//
compound: C[C@@H]1CC[C@@]23CCC4(C)[C@@](C=CC5[C@@]6(C)CCC(=O)C(C)(C)C6CC[C@]54C)(OC2=O)C3[C@H]1C (stereo partly drawn)
normalized growth: 0.981
//
compound: CC[C@@]1(O)C(=O)OCc2c1cc1n(c2=O)Cc2cc3cc(O)ccc3nc2-1
normalized growth: 1.01
//
compound: COC1=CC(C)[C@@H]2C[C@H]3OC(=O)C[C@H]4C(C)=C(OC)C(=O)C([C@@]34C)[C@@]2(C)C1=O (stereo partly drawn)
normalized growth: 0.981
//
compound: C=CCSSSCC=C
normalized growth: 1
//
compound: CC(C)(C)NCC(O)COc1cccc2c1CCCC2=O (stereo not drawn)
normalized growth: 1.02
//
compound: NC(=O)c1cc([N+](=O)[O-])cc([N+](=O)[O-])c1
normalized growth: 1.05
//
compound: CC(=O)N1CCN(c2ccc(OCC3CO[C@](Cn4ccnc4)(c4ccc(Cl)cc4Cl)O3)cc2)CC1 (stereo partly drawn)
normalized growth: 0.102
//
compound: Cc1ccccc1N1C(=O)c2cc(S(N)(=O)=O)c(Cl)cc2NC1C (stereo not drawn)
normalized growth: 1.03
//
compound: COC(=O)[C@H]1[C@H]2C[C@H]3c4[nH]c5cc(OC)ccc5c4CCN3C[C@H]2C[C@@H](OC(=O)c2cc(OC)c(OC)c(OC)c2)[C@@H]1OC
normalized growth: 1.01
//
compound: C[C@H]1[C@H](C)CC[C@]2(C(=O)O)CC[C@]3(C)C(=CCC4[C@@]5(C)C[C@@H](O)[C@H](O)[C@@](C)(CO)C5CC[C@]43C)[C@H]12 (stereo partly drawn)
normalized growth: 1.01
//
compound: CC(=O)O[C@@H]1CC2C(C)(CC[C@H](O)C2(C)C)C2CC[C@]3(C)C(=CC(=O)O[C@H]3c3ccoc3)C21C (stereo partly drawn)
normalized growth: 1
//
compound: C[C@H]1[C@H](C)CC[C@]2(C(=O)O)CC[C@]3(C)C(=CCC4[C@@]5(C)C[C@@H](O)[C@H](O)[C@@](C)(CO)C5[C@H](O)C[C@]43C)[C@H]12 (stereo partly drawn)
normalized growth: 0.956
//
compound: CCCCCC(O)C1C(=O)OC(C)C(O)/C=C/C=C/C=C/C=C/C=C(\C)C(O)CC(O)CC(O)CC(O)CC(O)CC(O)CC1O (stereo not drawn)
normalized growth: 0.986
//
compound: O=C(CCCN1CCC2(CC1)C(=O)NCN2c1ccccc1)c1ccc(F)cc1
normalized growth: 0.975
//
compound: C[C@H]1O[C@H](O[C@H]2[C@H](O)[C@@H](O)[C@@H](O[C@H]3[C@H](O)[C@@H](O)C(O)O[C@@H]3CO)O[C@@H]2CO)[C@H](O)[C@@H](O)[C@@H]1N[C@H]1C=C(CO)[C@@H](O)[C@H](O)[C@H]1O (stereo partly drawn)
normalized growth: 1.02
//
compound: O=C(Oc1ccccc1C(=O)O)c1ccccc1O
normalized growth: 1
//
compound: CN(C)C(=O)C(CCN1CCC(O)(c2ccc(Cl)cc2)CC1)(c1ccccc1)c1ccccc1
normalized growth: 0.994
//
compound: O=C(O)CCc1nc(-c2ccccc2)c(-c2ccccc2)o1
normalized growth: 0.954
//
compound: C[C@@H]1CC[C@@]23CCC4(C)[C@@](C=CC5[C@@]6(C)CC[C@H](O)C(C)(C)C6CC[C@]54C)(OC2=O)C3[C@H]1C (stereo partly drawn)
normalized growth: 1.08
//
compound: COC(=O)C[C@H]1C(C)(C)[C@@H](O)[C@@H]2CC3=C4CC(O)O[C@@H](c5ccoc5)[C@]4(C)CCC3[C@@]1(C)C2=O (stereo partly drawn)
normalized growth: 0.99
//
compound: CC1(C)C(=O)CC[C@@]2(C)C1C[C@@H](O)[C@@]1(C)C3=CC(=O)O[C@@H](c4ccoc4)[C@]3(C)CCC21 (stereo partly drawn)
normalized growth: 1.02
